Target System: Atypical kinase COQ8B, mitochondrial (Homo sapiens, UniProt Q96D53)
Sequence (Q96D53 whole entry): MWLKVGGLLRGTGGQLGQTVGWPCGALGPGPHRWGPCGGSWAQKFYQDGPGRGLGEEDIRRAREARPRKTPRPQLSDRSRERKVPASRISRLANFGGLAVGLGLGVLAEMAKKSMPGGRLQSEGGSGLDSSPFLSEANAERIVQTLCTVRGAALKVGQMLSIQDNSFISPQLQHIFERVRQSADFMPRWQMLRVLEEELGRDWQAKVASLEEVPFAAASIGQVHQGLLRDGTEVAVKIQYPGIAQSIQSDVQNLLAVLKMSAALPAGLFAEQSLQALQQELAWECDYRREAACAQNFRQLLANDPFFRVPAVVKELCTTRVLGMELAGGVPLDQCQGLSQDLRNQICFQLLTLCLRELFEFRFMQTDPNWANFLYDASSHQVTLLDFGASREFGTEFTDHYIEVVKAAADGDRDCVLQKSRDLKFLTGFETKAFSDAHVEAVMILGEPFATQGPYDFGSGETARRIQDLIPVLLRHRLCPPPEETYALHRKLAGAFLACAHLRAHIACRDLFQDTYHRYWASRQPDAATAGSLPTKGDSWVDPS

{"Structure As Smiles": "COc1ccc(/C=C\\c2cc(OC)c(OC)c(OC)c2)cc1NC(=O)CCC(=O)N[C@@H](CCCNC(=N)N)C(=O)O", "IC50": "> 10 µM"}
